compounds and their reported pEC50
# System: Calu-6
# Protocol Details: Compounds cellular killing (Cell Titer-Glo, 6 days, 2D)
# Type: cell-based
# Reported Conditions: Table 29, payload, Clau6, 6d, 2D (Her3 neg)
pEC50: −log10 of the molar value.
Measured Endpoint: pEC50

Compound	Experimental Result
CC[C@@]1(O)C(=O)OCc2c1cc1n(c2=O)Cc2c-1nc1cc(F)c(C)c3c1c2[C@@H](NC(=O)C(C)(F)CO)CC3 (single isomer, unassigned) [Isomer 2 of Compounds 68 & 69]	9.22
CC[C@@]1(O)C(=O)OCc2c1cc1n(c2=O)Cc2c-1nc1cc(F)c(C)c3c1c2[C@@H](NC(=O)C(C)(F)CO)CC3 (single isomer, unassigned) [Isomer 1 of Compounds 68 & 69]	8.74
